- measured-target: T1, hPD-1-Fc (human, UniProt Q15116 25-167)
- T1 construct: domain: IgV domain; also called human PD-1-Fc; not shown: human IgG1 Fc
- T1 sequence (Q15116 25-167 limits assumed): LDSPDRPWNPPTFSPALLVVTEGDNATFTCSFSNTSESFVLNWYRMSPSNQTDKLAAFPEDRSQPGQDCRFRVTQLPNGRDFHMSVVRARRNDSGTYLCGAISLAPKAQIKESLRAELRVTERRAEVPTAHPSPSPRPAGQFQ
- assay-protocol: SPR, Exp. 3
pKd: −log10 of the molar value.
Measured pKd, listed per entry.

The examples below pair each entry with its known result.
31B1 (antibody, V domains shown, also called 780_38; 33B1 and 31B2 (apparent misprints)) VH: QVQLVQSGAEVKKPGSSVKVSCKASGGTFSSSVISWVRQAPGQGLEWMGGIIPIFGTANYAQKFQGRVTITADESTSTAYMELSSLRSEDTAVYYCAREGLGCSGGSCYSGYYYGMDVWGQGTTVTVSS VL: DIVMTQSPLSLPVTPGEPASISCRSSQSLLHSNGYNYLDWYLQKPGQSPQLLIYEASSLHSGVPDRFSGSGSGTDFTLKISRVEAEDVGVYYCMQGTHWPYTFGQGTKVEIK | > 11.00
38A6 (antibody, V domains shown, also called 780_46) VH: EVQLLESGGGLVQPGGSLRLSCAASGFTFSSYWMSWVRQAPGKGLEWVSAISGSGGSTYYADSVKGRFTISRDNSKNTLYLQMNSLRAEDTAVYYCASSPLQWVDVWGQGTTVTVSS VL: DIQMTQSPSSLSASVGDRVTITCRASQDISRWLGWYQQKPGKAPKLLIYAASTLQSGVPSRFSGSGSGTDFTLTISSLQPEDFATYYCQQANSFPFTFGPGTKLEIK | > 9.52
38B2 (antibody, V domains shown, 24H9 derivative, IgG; also called 780_54; hPD1 Ab (38B2)) VH: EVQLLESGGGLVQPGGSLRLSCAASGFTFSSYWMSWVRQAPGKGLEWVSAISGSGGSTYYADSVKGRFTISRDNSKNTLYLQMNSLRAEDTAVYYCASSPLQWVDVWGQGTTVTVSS VL: DIQMTQSPSSLSASVGDRVTITCRASESISSWLAWYQQKPGKAPKLLIYDASSLESGVPSRFSGSGSGTDFTLTISSLQPEDFATYYCQQGDSFPFTFGQGTKLEIK | > 11.00

Please turn your attention to the following entry.
Note down pKd recorded for 33C4 (antibody, V domains shown, also called 780_39) VH: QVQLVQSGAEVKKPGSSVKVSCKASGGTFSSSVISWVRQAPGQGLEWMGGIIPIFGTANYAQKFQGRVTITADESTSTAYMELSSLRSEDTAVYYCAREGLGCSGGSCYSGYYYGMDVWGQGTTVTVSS VL: DIVMTQSPLSLPVTPGEPASISCRSSQSLLHSNGYNYLDWYLQKPGQSPQLLIYEASSLHTGVPDRFSGSGSGTDFTLKISRVEAEDVGVYYCMQGSHWPYTFGQGTKLEIK
> 11.00
